These data points were gathered from patent US8940909B2.

test system: Enterobacter aerogenes 242; assay: IO staining of colonies of beta-D-galactosidase positive/negative bacteria (Table IVb); format: cell-based; conditions: Enterobacter aerogenes strain 242, b-gal +; 24 h on Nutrient Agar, 150 mg/l indicator, 100 mg/l IPTG
EXPERIMENTAL_READOUT: F: Fluorescence of colonies

COMPOUND	OBSERVED
COc1ccc(C(=O)c2ccccc2-n2cc(O[C@@H]3O[C@H](CO)[C@H](O)[C@H](O)[C@H]3O)c3ccc(Cl)cc32)c(OC)c1 [Indicator I27a]	+
O=C(c1ccccc1)c1ccccc1-n1cc(O[C@@H]2O[C@H](CO)[C@H](O)[C@H](O)[C@H]2O)c2ccc(Cl)cc21 [Indicator I21a]	+
Cn1cccc1C(=O)c1ccccc1-n1cc(O[C@@H]2O[C@H](CO)[C@H](O)[C@H](O)[C@H]2O)c2ccc(Cl)cc21 [Indicator I31a]	+/−
COc1ccc(C(=O)c2ccccc2-n2cc(O[C@@H]3O[C@H](CO)[C@H](O)[C@H](O)[C@H]3O)c3c(Cl)c(Br)ccc32)c(OC)c1 [Indicator I28a]	+/−
